Known log10 EC50 of a selection of compounds
Molecular target: human PPARγ2 (Homo sapiens)
Construct: the amino acids 182 to 505 of human PPARγ2; expressed in transfected cells; host or cells: COS7 cells (African green monkey kidney)
Sequence (P37231 182-505): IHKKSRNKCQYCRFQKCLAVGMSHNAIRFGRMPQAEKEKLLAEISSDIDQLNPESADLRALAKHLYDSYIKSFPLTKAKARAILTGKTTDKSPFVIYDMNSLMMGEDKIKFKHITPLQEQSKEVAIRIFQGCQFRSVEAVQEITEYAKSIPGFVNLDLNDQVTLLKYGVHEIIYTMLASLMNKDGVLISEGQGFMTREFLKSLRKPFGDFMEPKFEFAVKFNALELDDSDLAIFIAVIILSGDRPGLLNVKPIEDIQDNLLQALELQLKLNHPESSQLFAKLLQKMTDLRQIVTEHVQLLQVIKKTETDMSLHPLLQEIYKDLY
Assay: PPARγ activation activity, Gal4-PPARγ2 LBD luciferase transfection assay using COS7 cells
Format: cell-based
Settings: COS7 cells, 16 hours, luciferase activity relative to rosiglitazone = 100%; read-out: EC50
Method: The agonistic activity of the compounds of the invention on PPARγ was measured based on the transfection assay using COS7 cells (DS Pharma Biomedical Co., Ltd., Osaka, Japan), which are the cell line derived from the kidney of the African green monkey. COS7 cells were cultured under 5% CO2 concentration, and DMEM medium containing 10% fetal bovine serum, glutamic acid, and antibiotics was used as a medium. […]
measurement-kind: log10 EC50 (log10 of the value in nM)

[
  {
    "compound": "CCCCc1nc(C)n(-c2ncc(OCC)cn2)c(=O)c1Cc1cc(CCC)c(OC(C(=O)O)c2ccccc2)c(CCC)c1 (centres unmarked) [Example 20]",
    "system": "human PPARγ2 (Homo sapiens)",
    "measurement-kind": "log10 EC50",
    "assay-value": 3.41
  },
  {
    "compound": "CCCCc1nc(C)n(-c2ncc(OC)cn2)c(=O)c1Cc1cc(CCC)c(OC(C(=O)O)c2ccccc2)c(CCC)c1 (centres unmarked) [Example 15]",
    "system": "human PPARγ2 (Homo sapiens)",
    "measurement-kind": "log10 EC50",
    "assay-value": 3.43
  },
  {
    "compound": "CCCCc1nc(CCc2ccc(CC)cn2)[nH]c(=O)c1Cc1cc(CCC)c(OC(C(=O)O)c2ccccc2)c(CCC)c1 (centres unmarked) [Example 31]",
    "system": "human PPARγ2 (Homo sapiens)",
    "measurement-kind": "log10 EC50",
    "assay-value": 3.08
  },
  {
    "compound": "CCCCc1nc(C)n(-c2ccc(OC(C)C)cc2)c(=O)c1Cc1cc(CCC)c(OC(C(=O)O)c2ccccc2)c(CCC)c1 (centres unmarked) [Example 14]",
    "system": "human PPARγ2 (Homo sapiens)",
    "measurement-kind": "log10 EC50",
    "assay-value": 2.78
  },
  {
    "compound": "CCCCc1nc(C)n(-c2ccccn2)c(=O)c1Cc1cc(CCC)c(OC(C(=O)O)c2ccc(Cl)cc2)c(CCC)c1 (centres unmarked) [Example 9]",
    "system": "human PPARγ2 (Homo sapiens)",
    "measurement-kind": "log10 EC50",
    "assay-value": 2.73
  },
  {
    "compound": "CCCCc1nc(C)n(-c2ccccn2)c(=O)c1Cc1cc(CCC)c(OC(c2ccccc2)c2noc(=O)[nH]2)c(CCC)c1 (centres unmarked) [Example 5]",
    "system": "human PPARγ2 (Homo sapiens)",
    "measurement-kind": "log10 EC50",
    "assay-value": 3.08
  },
  {
    "compound": "CCCCc1nc(C)n(CC2CCCCC2)c(=O)c1Cc1cc(CCC)c(OC(C(=O)O)c2ccccc2)c(CCC)c1 (centres unmarked) [Example 30]",
    "system": "human PPARγ2 (Homo sapiens)",
    "measurement-kind": "log10 EC50",
    "assay-value": 2.45
  },
  {
    "compound": "CCCCc1nc(C)n(-c2ncc(OC)cn2)c(=O)c1Cc1cc(CCC)c(OC(C(=O)O)c2ccccc2)c(CCC)c1 (single isomer, unassigned; (+)) [Example 17]",
    "system": "human PPARγ2 (Homo sapiens)",
    "measurement-kind": "log10 EC50",
    "assay-value": 3.57
  },
  {
    "compound": "CCCCc1nc(C)n(Cc2ccccc2)c(=O)c1Cc1cc(CCC)c(OC(C(=O)O)c2ccccc2)c(CCC)c1 (centres unmarked) [Example 28]",
    "system": "human PPARγ2 (Homo sapiens)",
    "measurement-kind": "log10 EC50",
    "assay-value": 2.93
  },
  {
    "compound": "CCCc1cc(Cc2c(CCC)nc(C)n(-c3ccccn3)c2=O)cc(CCC)c1OC(C(=O)O)c1ccccc1 (centres unmarked) [Example 2]",
    "system": "human PPARγ2 (Homo sapiens)",
    "measurement-kind": "log10 EC50",
    "assay-value": 3.59
  },
  {
    "compound": "CCCCc1nc(C)n(-c2ccccn2)c(=O)c1Cc1cc(CCC)c(OC(C(=O)O)c2ccccc2)c(CCC)c1 (centres unmarked) [Example 1]",
    "system": "human PPARγ2 (Homo sapiens)",
    "measurement-kind": "log10 EC50",
    "assay-value": 3.49
  },
  {
    "compound": "CCCCc1nc(C)n(CCOC)c(=O)c1Cc1cc(CCC)c(OC(C(=O)O)c2ccccc2)c(CCC)c1 (centres unmarked) [Example 33]",
    "system": "human PPARγ2 (Homo sapiens)",
    "measurement-kind": "log10 EC50",
    "assay-value": 3.43
  },
  {
    "compound": "CCCCc1nc(C)n(-c2ccccn2)c(=O)c1Cc1cc(CCC)c(OC(C(=O)O)c2ccccc2OC)c(CCC)c1 (centres unmarked) [Example 10]",
    "system": "human PPARγ2 (Homo sapiens)",
    "measurement-kind": "log10 EC50",
    "assay-value": 3.52
  },
  {
    "compound": "CCCCc1nc(C)n(-c2ccccn2)c(=O)c1Cc1cc(CCC)c(OC(C(=O)O)c2cccc(Cl)c2)c(CCC)c1 (centres unmarked) [Example 8]",
    "system": "human PPARγ2 (Homo sapiens)",
    "measurement-kind": "log10 EC50",
    "assay-value": 3.31
  },
  {
    "compound": "CCCCc1nc(C)n(-c2ncc(OC)cn2)c(=O)c1Cc1cc(CCC)c(OC(C(=O)O)c2ccc(Cl)cc2)c(CCC)c1 (centres unmarked) [Example 18]",
    "system": "human PPARγ2 (Homo sapiens)",
    "measurement-kind": "log10 EC50",
    "assay-value": 3.15
  },
  {
    "compound": "CCCCc1nc(C)n(-c2ccccn2)c(=O)c1Cc1cc(CCC)c(OC(C(=O)O)c2ccccc2Cl)c(CCC)c1 (centres unmarked) [Example 7]",
    "system": "human PPARγ2 (Homo sapiens)",
    "measurement-kind": "log10 EC50",
    "assay-value": 3.54
  },
  {
    "compound": "CCCCc1nc(C)nc(OCc2ccccc2)c1Cc1cc(CCC)c(OC(C(=O)O)c2ccccc2)c(CCC)c1 (centres unmarked) [Example 29]",
    "system": "human PPARγ2 (Homo sapiens)",
    "measurement-kind": "log10 EC50",
    "assay-value": 3.40
  },
  {
    "compound": "CCCCc1nc(C)n(-c2ccccn2)c(=O)c1Cc1cc(CCC)c(OC(c2nnn[nH]2)c2ccccc2Cl)c(CCC)c1 (centres unmarked) [Example 11]",
    "system": "human PPARγ2 (Homo sapiens)",
    "measurement-kind": "log10 EC50",
    "assay-value": 3.42
  },
  {
    "compound": "CCCCc1nc(C)n(-c2ccccn2)c(=O)c1Cc1cc(CCC)c(OC(C(=O)NS(C)(=O)=O)c2ccccc2)c(CCC)c1 (centres unmarked) [Example 6]",
    "system": "human PPARγ2 (Homo sapiens)",
    "measurement-kind": "log10 EC50",
    "assay-value": 3.50
  },
  {
    "compound": "CCCCc1nc(C)n(-c2ccc(OCC)cc2)c(=O)c1Cc1cc(CCC)c(OC(C(=O)O)c2ccccc2)c(CCC)c1 (centres unmarked) [Example 13]",
    "system": "human PPARγ2 (Homo sapiens)",
    "measurement-kind": "log10 EC50",
    "assay-value": 2.68
  },
  {
    "compound": "CCCc1cc(Cc2c(CC)nc(C)n(-c3ccccn3)c2=O)cc(CCC)c1OC(C(=O)O)c1ccccc1 (centres unmarked) [Example 3]",
    "system": "human PPARγ2 (Homo sapiens)",
    "measurement-kind": "log10 EC50",
    "assay-value": 3.55
  },
  {
    "compound": "CCCCc1nc(C)n(-c2ccccn2)c(=O)c1Cc1cc(CCC)c(OC(c2ccccc2)c2nnn[nH]2)c(CCC)c1 (centres unmarked) [Example 4]",
    "system": "human PPARγ2 (Homo sapiens)",
    "measurement-kind": "log10 EC50",
    "assay-value": 3.24
  },
  {
    "compound": "CCCCc1nc(C)n(-c2ncc(OCc3ccccc3)cn2)c(=O)c1Cc1cc(CCC)c(OC(C(=O)O)c2ccccc2)c(CCC)c1 (centres unmarked) [Example 19]",
    "system": "human PPARγ2 (Homo sapiens)",
    "measurement-kind": "log10 EC50",
    "assay-value": 2.81
  }
]
